SUBJECT_OF_TEST: Focal adhesion kinase 1 (Homo sapiens, UniProt Q05397)
Sequence (Q05397 whole entry): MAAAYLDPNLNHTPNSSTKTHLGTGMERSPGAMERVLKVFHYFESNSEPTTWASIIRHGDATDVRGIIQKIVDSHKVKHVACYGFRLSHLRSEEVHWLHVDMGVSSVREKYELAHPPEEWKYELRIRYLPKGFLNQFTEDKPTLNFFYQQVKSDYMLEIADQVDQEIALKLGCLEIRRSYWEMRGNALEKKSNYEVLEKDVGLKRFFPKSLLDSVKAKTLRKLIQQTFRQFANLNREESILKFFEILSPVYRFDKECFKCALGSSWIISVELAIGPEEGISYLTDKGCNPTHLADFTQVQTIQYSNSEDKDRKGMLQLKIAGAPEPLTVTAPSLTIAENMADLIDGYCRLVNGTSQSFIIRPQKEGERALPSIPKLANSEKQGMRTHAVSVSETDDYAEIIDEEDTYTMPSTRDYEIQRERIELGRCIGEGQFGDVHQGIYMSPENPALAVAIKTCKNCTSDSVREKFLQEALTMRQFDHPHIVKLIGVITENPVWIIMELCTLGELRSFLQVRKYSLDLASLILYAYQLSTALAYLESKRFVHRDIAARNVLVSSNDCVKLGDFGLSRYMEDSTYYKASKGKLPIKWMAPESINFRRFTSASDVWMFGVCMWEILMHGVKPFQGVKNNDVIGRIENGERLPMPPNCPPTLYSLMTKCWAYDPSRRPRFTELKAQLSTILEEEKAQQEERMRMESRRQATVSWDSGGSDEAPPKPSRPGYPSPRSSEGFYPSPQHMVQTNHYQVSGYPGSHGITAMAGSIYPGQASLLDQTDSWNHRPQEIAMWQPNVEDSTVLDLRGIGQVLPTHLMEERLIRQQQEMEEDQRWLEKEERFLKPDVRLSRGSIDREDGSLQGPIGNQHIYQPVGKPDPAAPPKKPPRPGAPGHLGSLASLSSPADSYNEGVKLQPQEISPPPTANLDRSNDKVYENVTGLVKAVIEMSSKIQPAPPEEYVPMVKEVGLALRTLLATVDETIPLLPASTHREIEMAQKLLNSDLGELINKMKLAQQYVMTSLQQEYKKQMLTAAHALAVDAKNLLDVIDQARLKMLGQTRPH

{"columns": ["LINE_NOTATION", "IC50"],
 "data": [
  ["COc1cc(N2CCCCC2=O)ccc1Nc1nc2c(c(Nc3ccccc3S(=O)(=O)NC(C)C)n1)CCN2", "< 20 nM"]
]}

====

Measured IC50 (Protein-tyrosine kinase 2-beta (Homo sapiens))
REPORTED_ENDPOINT: IC50

{"columns": ["COMPOUND", "RESULT"],
 "data": [
  ["COc1cc(N2CCC(N3CCOCC3)CC2)ccc1Nc1nc2c(c(Nc3ccccc3S(=O)(=O)NC(C)C)n1)CCN2", "< 20 nM"],
  ["CC(C)NS(=O)(=O)c1ccccc1Nc1nc(Nc2ccc(C(C)N3CCCCC3)cc2)nc2c1CCN2 (stereo not given)", "< 20 nM"],
  ["CCC(C)NS(=O)(=O)c1ccccc1Nc1nc(Nc2ccc(N3CCOCC3)cc2OC)nc2c1C1(CC1)CN2 (stereo not given)", "< 20 nM"],
  ["COc1cc(N2CCCCC2=O)ccc1Nc1nc2c(c(Nc3ccccc3S(=O)(=O)NC(C)C)n1)CCN2", "< 20 nM"],
  ["CCOc1cc(N2CCOCC2)ccc1Nc1nc2c(c(Nc3ccccc3S(=O)(=O)NC(C)C)n1)CCN2", "< 100 nM"]
]}

FYI, the data here is from ChEMBL document CHEMBL3886913.
